biological target: Avi-KRAS G12D/Q25A (1-169) GppNHp/3×FLAG-PI3KCA (157-299) (Homo sapiens, UniProt P01116, G12D/Q25A); construct: Avi-KRAS G12D/Q25A (1-169) GppNHp; test: HTRF PI3KCA-KRAS G12D/Q25A-GppNHp disruption assay; format: biochemical; conditions: 1 h incubation
Sequence (P01116 1-169 isoform P01116-2 G12D/Q25A limits assumed): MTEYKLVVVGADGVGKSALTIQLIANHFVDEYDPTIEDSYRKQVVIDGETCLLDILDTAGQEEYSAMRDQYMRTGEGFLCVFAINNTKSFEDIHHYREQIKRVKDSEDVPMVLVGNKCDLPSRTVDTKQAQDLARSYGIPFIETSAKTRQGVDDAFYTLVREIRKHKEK
pIC50: −log10 of the molar value.
MEASUREMENT TYPE: pIC50

Examples from the recorded data:
>  <COMPOUND>
C[C@@H]1CN(c2nc(OC[C@@]34CCCN3C[C@H](F)C4)nc3c(F)c(-c4ccc(F)c5sc(N)c(C#N)c45)c(C(F)(F)F)cc23)[C@@H](C)CN1 [Compound 378]

>  <EXPERIMENTAL VALUE>
6.00 to 7.00

$$$$
>  <COMPOUND>
Fc1c(-c2ccc(F)c3sc(C(F)F)nc23)c(C(F)(F)F)cc2c(N3CC4CCC(C3)N4)nc(OC[C@@]34CCCN3C[C@H](F)C4)nc12 [Compound 339]

>  <EXPERIMENTAL VALUE>
4.52 to 5.00

$$$$
>  <COMPOUND>
CN1CCC[C@H]1COc1nc(N2CCNCC2)c2cc(OC(F)(F)F)c(-c3ccc(F)c4sc(N)nc34)c(F)c2n1 [Compound 191]

>  <EXPERIMENTAL VALUE>
5.00 to 6.00

$$$$
>  <COMPOUND>
CN(c1nc(OC[C@@H]2CCCN2C)nc2c(F)c(-c3ccc(F)c4sc(N)nc34)c(Cl)cc12)C1CN(C(=O)CN)C1 [Compound 147]

>  <EXPERIMENTAL VALUE>
4.52 to 5.00

$$$$
>  <COMPOUND>
N#Cc1c(N)sc2c(F)ccc(-c3c(C(F)F)cc4c(N5C[C@H]6CC[C@@H](C5)N6)nc(OC[C@@]56CCCN5C[C@H](F)C6)nc4c3F)c12 [Compound 301]

>  <EXPERIMENTAL VALUE>
6.00 to 7.00

$$$$
>  <COMPOUND>
CN(c1nc(OC[C@@]23CCCN2C[C@H](F)C3)nc2c(F)c(-c3ccc(F)c4sc(N)nc34)c(C(F)(F)F)cc12)C1CCNC1 (stereo in doubt) [Compound 322]

>  <EXPERIMENTAL VALUE>
5.00 to 6.00

$$$$
>  <COMPOUND>
CN(c1nc(OCC2(CN3CC[C@@H](F)C3)CC2)nc2c(F)c(-c3ccc(F)c4sc(N)nc34)c(C(F)(F)F)cc12)[C@@H]1CCNC1 [Compound 297]

>  <EXPERIMENTAL VALUE>
5.00 to 6.00

$$$$
>  <COMPOUND>
CCc1cc2c(N3CCNCC3)nc(OC[C@@H]3CCCN3C)nc2c(F)c1-c1ccc(F)c2sc(N)nc12 [Compound 177]

>  <EXPERIMENTAL VALUE>
4.52 to 5.00

$$$$

Data point: C[C@@H]1C[C@@H](N(C)c2nc(OC[C@@]34CCCN3C[C@H](F)C4)nc3c(F)c(-c4ccc(F)c5sc(N)nc45)c(C(F)(F)F)cc23)CN1 [Compound 283] ; pIC50 = 6.00 to 7.00

Data point: CN1CCC[C@H]1COc1nc(N2CC(N)C2)c2cc(Cl)c(-c3ccc(F)c4sc(N)nc34)c(F)c2n1 [Compound 112] ; pIC50 = 5.00 to 6.00

Data point: CN(c1nc(OCC23CCCN2CCC3)nc2c(F)c(-c3ccc(F)c4sc(N)nc34)c(C(F)(F)F)cc12)C12CC(N)(C1)C2 [Compound 274] ; pIC50 = 6.00 to 7.00

Data point: CN1CCC[C@H]1COc1nc(N2CCN(C(=O)CN)[C@@H](CC#N)C2)c2cc(Cl)c(-c3ccc(F)c4sc(N)nc34)c(O)c2n1 [Compound 59] ; pIC50 = 4.52 to 5.00
